Target: T1, corticotropin releasing factor 2 receptor
T1 sequence (Q13324 whole entry, species assumed, looked up): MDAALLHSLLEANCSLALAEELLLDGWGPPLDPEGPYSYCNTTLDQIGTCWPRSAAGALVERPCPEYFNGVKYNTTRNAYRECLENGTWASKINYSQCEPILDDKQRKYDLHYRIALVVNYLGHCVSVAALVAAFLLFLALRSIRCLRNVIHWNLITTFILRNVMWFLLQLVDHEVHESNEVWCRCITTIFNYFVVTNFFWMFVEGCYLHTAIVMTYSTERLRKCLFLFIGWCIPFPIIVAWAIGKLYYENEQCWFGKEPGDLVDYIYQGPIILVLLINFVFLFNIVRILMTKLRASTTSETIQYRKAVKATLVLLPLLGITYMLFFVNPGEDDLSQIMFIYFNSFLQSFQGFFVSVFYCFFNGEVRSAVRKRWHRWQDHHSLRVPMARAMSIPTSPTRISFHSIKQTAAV
Assay: cell-based or functional assay
Ends that are not written are not given here.
Recorded measurements of CRF2R Emax %, one per entry
RESULT_TYPE: CRF2R Emax % (%)

ZGPPISIDLPTYLLRKMIEIEKQEKEKQQAANNALLLDTI (C-terminal amide) [SEQ ID NO 232] | 100
ZGPPISIDVPYWLLRKVIEIEKQEKEKQQAANNARLLARI (C-terminal amide) [SEQ ID NO 373] | 100
IVLSLDVPIGLLQILLEQARHAHAHAHAHAQAHILAHV-NH2 [SEQ ID NO 369] | 18
NDDPPISIDLPFQLLRNMIEMARIENEREQAGLNAKYLAEV-NH2 [SEQ ID NO 258] | 49.3
ZGPPISIDLPFHLLRKMIEIEKQEKEKQQAANNALLLATI (C-terminal amide) [SEQ ID NO 229] | 100
ZGPPISIDLPFQLLRKVIEIEKQEKEKQQAANNALLLATI (C-terminal amide) [SEQ ID NO 352] | 83.7

From: patent US20030148956A1
